# measurementProtocol: Volume of distribution at steady state in rat at 1 mg/kg, iv
# Format: ADME, organism-based
# experimentalConditions: in vivo, read-out: Vdss
assayMetric: Vd (L/kg)
Express your answer in L/kg, writing the number without its unit.

// known answers, use as guide
| compound | Vd [L/kg] |
| --- | --- |
| CC(C)N1CC=C(c2ccc(/C(=C(/CCCO)c3ccccc3)c3cccc(O)c3)cc2)CC1.Cl | 19.9 |
| Cl.OCCC/C(=C(\c1ccc(O)cc1)c1ccc(C2CCN(C3CC3)CC2)cc1)c1ccccc1 | 11.7 |

Please look at the following compound next.
Requested field: Vd. Item: `CC(C)N1CC=C(c2ccc(/C(=C(/CCCO)c3ccccc3)c3ccc(O)cc3)cc2)CC1.Cl` 9.6

###

Measured Stabilty by item
# measurementProtocol: Metabolic stability in rat liver microsomes assessed as parent compound remaining; also: time not given here
# Assay type: ADME, Microsome
Express your answer in %, writing the number without its unit.

| molecule | Stabilty (%) |
| --- | --- |
| CC(C)N1CC=C(c2ccc(/C(=C(/CCCO)c3ccccc3)c3cccc(O)c3)cc2)CC1.Cl | 53.5 |
| CC(C)N1CCC(c2ccc(/C(=C(/CCCO)c3ccc(F)cc3F)c3ccc(O)cc3)cc2)CC1.Cl | 84.8 |
| CC(C)N1CC=C(c2ccc(/C(=C(/CCCO)c3ccccc3)c3ccc(O)cc3)cc2)CC1.Cl | 69 |
| CC(C)N1CCC(c2ccc(/C(=C(/CCCO)c3ccc(F)cc3)c3ccc(O)cc3)cc2)CC1.Cl | 76.7 |
| Cl.OCCC/C(=C(\c1ccc(O)cc1)c1ccc(C2CCN(C3CC3)C2)cc1)c1ccccc1 (stereo not drawn) | 46.4 |

Requested field: Stabilty. Item: `Cl.OCCC/C(=C(\c1ccc(O)cc1)c1ccc(C2CCNCC2)cc1)c1ccccc1` 84.5

Requested field: Stabilty. Item: `Cl.OCCC/C(=C(\c1ccc(O)cc1)c1ccc(C2CCN(C3CC3)CC2)cc1)c1ccccc1` 92.6

Requested field: Stabilty. Item: `CC(C)N1CCC(c2ccc(/C(=C(/CCCO)c3ccccc3)c3ccc(O)cc3)cc2)CC1.Cl` 43.2

###

Measured inhibition at […], 10 µM by item
# tgt: UniProt P08684
# Sequence (P08684 whole entry): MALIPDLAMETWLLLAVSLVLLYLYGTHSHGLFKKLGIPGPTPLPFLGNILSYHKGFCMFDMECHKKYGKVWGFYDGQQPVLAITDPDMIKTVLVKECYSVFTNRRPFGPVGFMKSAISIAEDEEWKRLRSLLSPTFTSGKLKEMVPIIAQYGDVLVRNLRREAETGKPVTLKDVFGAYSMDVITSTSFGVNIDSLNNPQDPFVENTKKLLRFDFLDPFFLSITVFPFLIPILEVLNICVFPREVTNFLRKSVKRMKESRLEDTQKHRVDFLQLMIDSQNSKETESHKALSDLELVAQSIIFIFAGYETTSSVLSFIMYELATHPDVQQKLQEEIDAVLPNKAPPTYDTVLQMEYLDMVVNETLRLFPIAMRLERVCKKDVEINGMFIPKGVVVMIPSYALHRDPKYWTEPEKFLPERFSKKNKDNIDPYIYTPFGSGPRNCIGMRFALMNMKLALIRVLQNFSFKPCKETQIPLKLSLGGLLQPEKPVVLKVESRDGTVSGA
# measurementProtocol: Inhibition of CYP3A4 (unknown origin) in liver microsomes at 10 uM incubated for 15 mins relative to control
# Format: ADME

Field: inhibition at […], 10 µM (UniProt P08684). Entry: `CC(C)N1CCC(c2ccc(/C(=C(/CCCO)c3ccc(F)cc3F)c3ccc(O)cc3)cc2)CC1.Cl` 16.1%

Field: inhibition at […], 10 µM (UniProt P08684). Entry: `CC(C)N1CCN(c2ccc(/C(=C(/CCCO)c3ccccc3)c3cccc(O)c3)cc2)CC1` < 53%

Field: inhibition at […], 10 µM (UniProt P08684). Entry: Cl.OCCC/C(=C(\c1ccc(O)cc1)c1ccc(C2CCN(C3CC3)C2)cc1)c1ccccc1 (stereo not drawn) 67%

Field: inhibition at […], 10 µM (UniProt P08684). Entry: `CC(C)N1CC=C(c2ccc(/C(=C(/CCCO)c3ccccc3)c3ccc(O)cc3)cc2)CC1.Cl` 25.3%

Field: inhibition at […], 10 µM (UniProt P08684). Entry: `CC(C)N1CCC(c2ccc(/C(=C(/CCCO)c3ccc(F)cc3)c3ccc(O)cc3)cc2)CC1.Cl` 16.9%

Cited source for all entries: ChEMBL document CHEMBL4706533
